- Tested on: HL-60
- Assay Method Text: In vitro inhibitory concentration against human promyelocytic leukemia HL60 cell line
- Format: functional, cell-based
Readout Type: IC50 (µM)

1. OC[C@H]1OC(n2cnc3c(-c4ccc(F)cc4)ncnc32)[C@H](O)[C@@H]1O (stereo partly drawn); 6.3
2. OC[C@H]1OC(n2cnc3c(-c4nccs4)ncnc32)[C@H](O)[C@@H]1O (stereo partly drawn); 6.3
3. OC[C@H]1OC(n2cnc3c(-c4ccsc4)ncnc32)[C@H](O)[C@@H]1O (stereo partly drawn); 3.8
